ASSAYED_SYSTEM: E. coli TrxR (Escherichia coli, UniProt P0A9P4)
Sequence (P0A9P4 whole entry): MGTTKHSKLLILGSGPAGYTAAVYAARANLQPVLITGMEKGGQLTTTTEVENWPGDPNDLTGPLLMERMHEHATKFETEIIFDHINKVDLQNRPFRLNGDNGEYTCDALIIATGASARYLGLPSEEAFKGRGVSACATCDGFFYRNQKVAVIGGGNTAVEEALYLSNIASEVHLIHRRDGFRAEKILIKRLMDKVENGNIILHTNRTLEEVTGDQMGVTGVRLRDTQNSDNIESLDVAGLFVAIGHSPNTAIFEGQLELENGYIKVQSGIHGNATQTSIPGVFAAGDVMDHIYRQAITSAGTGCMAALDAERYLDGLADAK
ASSAY_INFO: E. coli TrxR inhibition, thioredoxin dependent DTNB reduction assay
Assay type: biochemical
RUN_CONDITIONS: DTNB assay; 100 nM TrxR, 2 μM Trx, 240 μM NADPH, 1 mM DTNB; read-out: IC50 for E. coli TrxR
PROPERTY_NAME: pIC50
Please express pIC50 as -log10 of the molar concentration.

MOLECULE | pIC50
O=C(O)c1ccccc1-n1[se]c2ccccc2c1=O [EbSe 9] | 5.12
Cn1[se]c2ccccc2c1=O [EbSe 3] | 4.82
O=c1c2ccccc2[se]n1-c1ccccc1[N+](=O)[O-] [EbSe 12] | 5.52
O=c1c2ccccc2[se]n1CCCn1[se]c2ccccc2c1=O [EbSe 15] | 5.68
NCCn1[se]c2ccccc2c1=O [EbSe5] | 5.67
Cc1cc(Cl)ccc1-n1[se]c2ccccc2c1=O [EbSe 8] | 5.22
O=C(O)c1ccc(-n2[se]c3ccccc3c2=O)cc1 [EbSe 10] | 4.82
O=c1c2ccccc2[se]n1-c1ccncc1 [EbSe 13] | 5.52

// sample O=c1c2ccccc2[se]n1-c1ccccc1 [EbSe 6, 2-phenyl-1,2-benzisoselenazol-3(2H)-one] , its pIC50 was 5.22

// sample CC(C)(C)n1[se]c2ccccc2c1=O [EbSe 4] , its pIC50 was 4.82

// sample O=c1c2ccccc2[se]n1CCCCCCn1[se]c2ccccc2c1=O [EbSe 16] , its pIC50 was 5.65

// sample O=c1c2ccccc2[se]n1CCn1[se]c2ccccc2c1=O [EbSe 14] , its pIC50 was 5.70

// sample O=c1c2cccnc2[se]n1-c1ccc(Cl)cc1 [EbSe19] , its pIC50 was 5.52

// sample O=c1[nH][se]c2ccccc12 [EbSe 2] , its pIC50 was 4.82

// sample O=c1c2ccccc2[se]n1-c1ccc(Cl)cc1 [EbSe 7] , its pIC50 was 5.15
